Target: Chromobox protein homolog 1 (Homo sapiens)
Test: qHTS Validation Assay for Inhibitors of HP1-beta Chromodomain Interactions with Methylated Histone Tails (AID 488953); further: nearly all actives have a fitted effect of over 50% in size
Settings: HP1-beta chromodomain / methylated histone peptide binding assay; series mostly up to 114 µM
Excerpt: As our understanding of epigenetics expands, it is becoming clear that players in this field are potential targets for drug development. […] Low-affinity protein-protein interactions (Kd in the single- to double-digit micromolar range) such as those discussed here have been very difficult to assay by traditional techniques such as fluorescence polarization or fluorescence resonance energy transfer. […]
Records with an inconclusive call do not appear. The source made the active and inactive calls. The call rests on the fitted dose curve; in most records, active means well fitted inhibition curve with a large enough effect; inconclusive means small, poorly fitted or top-dose-only effect; inactive means no such curve, though single readings can be large or run the other way.
Can you answer with just one of these options? t (active), f (inactive)

Take a look at these entries with their results.
# compound, class_label
records = [
    ("CCCN1CCC[C@@H]2Cc3nc(N)ncc3C[C@H]21", "f"),
    ("CC(COc1ccccc1)N(CCCl)Cc1ccccc1 (configuration not stated)", "t"),
]

[Q] Hey, what did the test say about "CC(=O)[C@H]1CC[C@H]2[C@@H]3CC[C@H]4C[C@H](O)CC[C@]4(C)[C@H]3C(=O)C[C@]12C" ?
[A] f

[Q] I would be grateful if you could indicate the recorded call for "OCCN1CCN(CCCN2c3ccccc3Sc3ccc(C(F)(F)F)cc32)CC1" .
[A] t

[Q] // outcome(item) with item = "COc1ccccc1N1CCNCC1"
[A] f

[Q] For this compound, state the assay outcome: "Cc1cccc(C)c1NC(=O)CN1CCCC1=O"
[A] f

[Q] For CCCC(C)(COC(N)=O)COC(=O)NC(C)C (configuration not stated) , what call appears in the results of this test?
[A] t

[Q] Could you please tell me the result logged for "C=C(C)[C@H]1Cc2c(ccc3c2O[C@@H]2COc4cc(OC)c(OC)cc4[C@@H]2C3=O)O1" in this assay?
[A] t

[Q] Call for entry NCC(O)c1ccc(O)cc1 (configuration not stated) :
[A] f

[Q] I'd appreciate the recorded outcome for COc1ccc(C(CN(C)C)C2(O)CCCCC2)cc1 (configuration not stated) from this test.
[A] f

[Q] Any idea what this test logged for "NN=C(N)N" ?
[A] f

[Q] Fill in: this test's call for "Fc1ccc(C(OCCN2CCN(CCCc3ccccc3)CC2)c2ccc(F)cc2)cc1" is ___
[A] t
